# z-score listing for each entry below
Assay: PSAC antagonists in infected red cells, primary screen, cell-based, P. falciparum Indochina, OD700, 2 h (AID 1155);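 further: lysis reports solute entry through the parasite surface anion channel PSAC; channel blockers reduce lysis of infected cells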
Settings: P. falciparum Indochina infected erythrocytes, osmotic lysis OD700; higher = more signal, called active from +8 up or from −8 down
Returns: the value as a bare number; no unit string appended.

Example cases with answers are listed next.
>  <Molecule>
Cc1ccccc1C(O)C1C=CC2C(=O)N(c3ccccc3)C(=O)C2N1Nc1ccc([N+](=O)[O-])cc1 (stereo not given)

>  <Measure>
z-score

>  <Result Number>
11.2

$$$$
>  <Molecule>
O=C1O[C@H](c2ccccc2)[C@H](c2ccccc2)N2[C@H]1[C@@H](C(=O)N1CCCCCCC1)[C@]1(C(=O)Nc3ccc(C#CC4(O)CCCCCC4)cc31)[C@H]2c1ccccc1OCCO

>  <Measure>
z-score

>  <Result Number>
0.216

$$$$
>  <Molecule>
CC(C)[Si]1(C(C)C)OCc2cc(-c3ccc(-c4ccc(Cl)c(Cl)c4)o3)nc(CCc3ccccc3)c21

>  <Measure>
z-score

>  <Result Number>
-0.0088

$$$$

z-score in this record for CC(C)(C)OC(=O)CC[C@]1(C(=O)N2CCCCC2)COC(c2ccc(OCCCO)cc2)=N1 : 5.22

z-score in this record for C=CCC(OC(C)=O)[C@@H]1[C@@H](N(Cc2ccc(-c3ccccc3)cc2)C(=O)c2ccc(C)cc2)c2cc(OCCCO)ccc2N1C(=O)Cc1ccc2ccccc2c1 (stereo not given in full) : -0.66

z-score in this record for COCCOC(=O)N1C(=O)[C@@]2(c3cc(C#CC4=CCCCC4)ccc31)[C@H](c1ccc(O)cc1)N1[C@H](c3ccccc3)[C@H](c3ccccc3)OC(=O)[C@H]1[C@@H]2C(=O)NC[C@H](O)c1ccccc1 : 0.44

z-score in this record for CC(C)C[C@@H]1NC(=O)[C@@H]2C[C@H](C(=O)NCCCCCC[N+](C)(C)C)[C@H](c3cccc(OCCO)c3)N2C1=O : 1.35

z-score in this record for CN1C(=O)C2C=CC(C(O)c3cc(C(F)(F)F)cc(C(F)(F)F)c3)N(Nc3ccccc3)C2C1=O (stereo not given) : 0.301

z-score in this record for CN(C)CCCCNC(=O)[C@H]1C[C@H]2C(=O)N[C@@H](CCCC[N+](C)(C)C)C(=O)N2[C@H]1c1ccc(O)cc1 : -0.539

z-score in this record for COC(=O)[C@@]1(Cc2ccccc2)[C@H]2c3cc(C(=O)N4CCCC4)n(CCSCCO)c3C[C@H]2CN1C(=O)c1ccccc1 : 0.636

z-score in this record for [N-]=[N+]=Nc1ccccc1[C@@H]1OC(c2ccc(OCCCO)cc2)=N[C@]1(Cc1ccccc1)C(=O)NCc1ccccc1 : 29.2

z-score in this record for O=C1OCC=C[C@H]2OC34C=CCN(c5ccc6ccccc6c5)C(=O)[C@H]3N(CCCCCO)C(=O)[C@@H]4[C@@H]12 (stereo not given in full) : 0.132

z-score in this record for COc1ccc([Si](C)(C)[C@H]2[C@H](CCO)O[C@@]3(C(=O)N(Cc4ccccc4)c4ccc(N5C(=O)c6ccccc6Oc6ccccc65)cc43)[C@@H]2C)cc1 : 1.45

z-score in this record for NC(=O)[C@@H]1[C@H]2C(=O)O[C@H](c3ccccc3)[C@H](c3ccccc3)N2[C@H](c2ccc(OCCO)cc2)[C@@]12C(=O)Nc1ccc(C#CCCO)cc12 : 4.8

z-score in this record for CC(=O)n1cc(C(O)C2C=CC3C(=O)N(c4ccccc4)C(=O)C3N2Nc2ccc(C(C)C)cc2)c2ccccc21 (stereo not given) : 0.959

z-score in this record for CO[C@H]1O[C@H](CO)[C@@H](OC(=O)CCc2ccccc2)[C@H](OC(=O)c2cc3ccccc3[nH]2)[C@H]1OC(=O)c1cc2ccccc2[nH]1 : 0.923

z-score in this record for CO[C@H]1O[C@H](CO)[C@@H](OC(=O)Nc2ccc(C#N)cc2)[C@@H]2OC(=O)[C@H](Cc3cccc(Br)c3)C/C=C/C[C@@H](Cc3cccc(Br)c3)C(=O)O[C@@H]12 : -0.178

z-score in this record for CO[C@H]1O[C@H](CO)[C@@H](OC(=O)Nc2cccc(F)c2)[C@H](OC(=O)Nc2ccccc2-c2ccccc2)[C@H]1OC(=O)Nc1ccccc1-c1ccccc1 : 1.22

z-score in this record for COCCOC(=O)N1C(=O)[C@@]2(c3cc(C#CC4(O)CCCCCC4)ccc31)[C@H](C(=O)N1CCN(c3ncccn3)CC1)[C@H]1C(=O)O[C@H](c3ccccc3)[C@H](c3ccccc3)N1[C@@H]2c1ccccc1OCCO : 0.276

z-score in this record for NC(=O)NCC#Cc1ccc2c(c1)[C@]1(C(=O)N2)[C@H](C(=O)N2CCN(c3ncccn3)CC2)[C@H]2C(=O)O[C@H](c3ccccc3)[C@H](c3ccccc3)N2[C@@H]1c1ccc(OCCO)cc1 : 1.66

z-score in this record for COc1ccc([Si](C)(C)[C@H]2[C@H](CC(=O)N3Cc4ccccc4C[C@H]3CO)O[C@@]3(C(=O)N(Cc4ccc(N5C(=O)c6cccc7cccc5c67)cc4)c4ccccc43)[C@@H]2C)cc1 : 1.36

z-score in this record for COC(=O)[C@@]1(Cc2ccc(F)cc2)[C@H]2c3cc(C(=O)N4CCCC4)n(C)c3C[C@H]2CN1C(=O)c1ccccc1 : 0.107

z-score in this record for COCCOC(=O)N1C(=O)[C@@]2(c3cc(C#CC4=CCCCC4)ccc31)[C@H](C(=O)N1CCCCCCC1)[C@H]1C(=O)O[C@H](c3ccccc3)[C@H](c3ccccc3)N1[C@@H]2c1ccc(OCCO)cc1 : 1.19

z-score in this record for CCOC(=O)C1=CCC(c2ccco2)N(S(=O)(=O)c2ccc(C)cc2)C1 (stereo not given) : 1.24

z-score in this record for COC(=O)C(CC#Cc1ccc2c(c1)[C@]1(C(=O)N2)[C@H](c2ccc(OCCO)cc2)N2[C@H](c3ccccc3)[C@H](c3ccccc3)OC(=O)[C@H]2[C@@H]1C(=O)N1CCN(c2ncccn2)CC1)C(=O)OC : 1.62

* * *

# composite z-score listing for each entry below
Target: Albumin (Bos taurus) (UniProt P02769)
Sequence (P02769 whole entry, looked up): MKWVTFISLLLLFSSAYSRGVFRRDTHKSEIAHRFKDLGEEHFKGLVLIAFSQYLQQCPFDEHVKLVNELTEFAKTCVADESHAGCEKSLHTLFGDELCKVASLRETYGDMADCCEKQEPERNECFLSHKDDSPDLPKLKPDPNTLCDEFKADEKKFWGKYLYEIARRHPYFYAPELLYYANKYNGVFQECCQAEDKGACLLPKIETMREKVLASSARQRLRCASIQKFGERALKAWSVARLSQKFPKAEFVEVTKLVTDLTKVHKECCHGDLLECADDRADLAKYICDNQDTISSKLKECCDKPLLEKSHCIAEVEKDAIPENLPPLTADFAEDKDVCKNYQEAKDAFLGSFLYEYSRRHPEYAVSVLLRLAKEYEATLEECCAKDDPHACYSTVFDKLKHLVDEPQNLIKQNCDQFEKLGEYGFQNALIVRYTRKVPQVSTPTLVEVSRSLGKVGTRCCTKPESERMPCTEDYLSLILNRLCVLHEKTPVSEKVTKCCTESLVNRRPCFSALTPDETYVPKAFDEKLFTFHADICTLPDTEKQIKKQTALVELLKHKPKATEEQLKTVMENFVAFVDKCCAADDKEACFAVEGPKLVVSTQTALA
Experiment: bovine serum albumin binders on microarray, profiling panel, artefact control for SMM control protein annotation, biochemical, small-molecule microarray, Alexa647 label, 635/667 nm fluorescence (AID 1118);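 further: score merges 667 nm emission intensity and signal-to-noise per printed compound spot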
Details: BSA-A647 binding, fluorescence 635 nm, higher = more signal

Example cases with answers are listed next.
>  <Compound>
CCc1cccc(NC(=O)O[C@H]2[C@H](OC(=O)Nc3ccccc3)[C@H](OC(=O)Nc3ccccc3)[C@@H](OC)O[C@@H]2CO)c1

>  <composite z-score>
0.902

$$$$
>  <Compound>
O=C(NCC(O)CO)[C@@]1(CCS(=O)(=O)c2ccccc2)COC(c2ccc(OCCCO)cc2)=N1 (stereo partly drawn)

>  <composite z-score>
0.927

$$$$

Please turn your attention to the following entry.
Reported composite z-score (Albumin (Bos taurus) (UniProt P02769)) for entry COc1ccc(C#Cc2ccc3c(c2)[C@]2(C(=O)N3)[C@H](C(=O)Nc3nc4ccccc4s3)[C@H]3C(=O)O[C@H](c4ccccc4)[C@H](c4ccccc4)N3[C@@H]2c2ccccc2OCCO)cc1 is 0.656

* * *

Target: Albumin (Bos taurus)
Assay: bovine serum albumin binders on microarray, profiling panel, artefact control for SMM control protein annotation, biochemical, small-molecule microarray, Alexa647 label, 635/667 nm fluorescence (AID 1118);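 further: score merges 667 nm emission intensity and signal-to-noise per printed compound spot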
Settings: BSA-A647 binding, fluorescence 635 nm, higher = more signal
Measure: composite z-score
Returns: the value as a bare number; no unit string appended.

Example cases with answers are listed next.
>  <Molecule>
CC(C)[C@H]1NC(=O)[C@@]23C(=O)N[C@@H](Cc4ccccc4)C2[C@H](C)[C@@]2(C)O[C@H]2C3/C=C/C/C=C\CNC(=O)[C@H](Cc2ccccc2)NC1=O (stereo partly specified)

>  <composite z-score>
0.347

$$$$
>  <Molecule>
COCCOC(=O)N1C(=O)[C@@]2(c3cc(C#CCC(C(=O)OC)C(=O)OC)ccc31)[C@H](c1ccc(OCCO)cc1)N1[C@H](c3ccccc3)[C@H](c3ccccc3)OC(=O)[C@H]1[C@@H]2C(=O)Nc1nc2ccccc2s1

>  <composite z-score>
-0.86

$$$$

composite z-score in this record for COCCOC(=O)N1C(=O)[C@@]2(c3cc(C#CCC(C(=O)OC)C(=O)OC)ccc31)[C@H](c1ccc(O)cc1)N1[C@H](c3ccccc3)[C@H](c3ccccc3)OC(=O)[C@H]1[C@@H]2C(=O)NC[C@H](O)c1ccccc1 : 0.781

composite z-score in this record for CN(C)CCCNC(=O)[C@@H]1c2ccccc2C(=O)N(C2CCCCC2)[C@H]1c1ccc(CO)cc1 : -0.706

composite z-score in this record for Cc1ccc([C@H]2C(C(=O)O)=C[C@@H](C(C)(C)C)N2S(=O)(=O)c2ccc(C)cc2)cc1 : 0.966

composite z-score in this record for C=C(COC)/C(=C/C[C@@H](OC(C)=O)c1ccc(CO)o1)c1cc(C(=O)OC)ccc1OC : -0.418

All values here come from PubChem BioAssay.
